assayed system: NMDA receptor (Homo sapiens, UniProt Q05586+Q13224)
Sequence (Q13224 27-1484, other chains not shown): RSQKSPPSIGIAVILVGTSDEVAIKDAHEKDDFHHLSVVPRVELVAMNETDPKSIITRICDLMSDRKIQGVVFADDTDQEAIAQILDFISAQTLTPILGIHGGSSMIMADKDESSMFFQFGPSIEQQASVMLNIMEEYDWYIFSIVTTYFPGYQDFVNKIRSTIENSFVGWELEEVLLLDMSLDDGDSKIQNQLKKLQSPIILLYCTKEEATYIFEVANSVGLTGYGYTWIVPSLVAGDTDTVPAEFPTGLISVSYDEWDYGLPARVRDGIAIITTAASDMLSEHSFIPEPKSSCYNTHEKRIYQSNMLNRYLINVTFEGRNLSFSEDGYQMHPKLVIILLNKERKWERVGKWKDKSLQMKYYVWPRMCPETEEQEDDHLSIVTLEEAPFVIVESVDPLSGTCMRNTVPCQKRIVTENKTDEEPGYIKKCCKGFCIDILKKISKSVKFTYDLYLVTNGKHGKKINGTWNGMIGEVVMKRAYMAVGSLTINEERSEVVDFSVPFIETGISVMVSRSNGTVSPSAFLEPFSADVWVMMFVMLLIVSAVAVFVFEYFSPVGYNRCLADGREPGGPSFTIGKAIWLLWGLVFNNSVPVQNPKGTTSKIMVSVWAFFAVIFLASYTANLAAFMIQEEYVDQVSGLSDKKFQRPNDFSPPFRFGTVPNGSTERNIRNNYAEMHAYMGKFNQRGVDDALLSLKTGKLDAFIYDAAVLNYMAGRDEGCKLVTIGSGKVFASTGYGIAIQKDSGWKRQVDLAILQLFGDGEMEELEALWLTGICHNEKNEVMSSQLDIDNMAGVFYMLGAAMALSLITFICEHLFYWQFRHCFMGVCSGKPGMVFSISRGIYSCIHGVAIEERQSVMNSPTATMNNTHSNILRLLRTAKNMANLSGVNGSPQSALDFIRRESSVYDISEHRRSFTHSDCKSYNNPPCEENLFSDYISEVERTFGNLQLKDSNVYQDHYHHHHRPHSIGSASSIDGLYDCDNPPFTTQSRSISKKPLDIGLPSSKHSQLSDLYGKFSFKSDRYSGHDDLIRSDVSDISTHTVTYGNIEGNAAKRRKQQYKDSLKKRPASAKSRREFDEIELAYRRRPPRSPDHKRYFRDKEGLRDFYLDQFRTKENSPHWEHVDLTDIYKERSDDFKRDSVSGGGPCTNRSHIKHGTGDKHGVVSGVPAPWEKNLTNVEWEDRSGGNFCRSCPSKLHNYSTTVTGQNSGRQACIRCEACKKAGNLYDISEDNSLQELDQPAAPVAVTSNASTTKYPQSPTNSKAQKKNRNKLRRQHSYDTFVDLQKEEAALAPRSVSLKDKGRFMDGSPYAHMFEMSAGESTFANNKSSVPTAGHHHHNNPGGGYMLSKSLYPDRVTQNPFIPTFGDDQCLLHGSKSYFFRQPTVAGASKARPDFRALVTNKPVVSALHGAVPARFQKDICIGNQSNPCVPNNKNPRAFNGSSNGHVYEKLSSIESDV
assay method text: electrophysiology and ligand displacement studies at the NMDA receptor
pKi values by entry
Kindly note that pKi refers to -log10 of the concentration in mol/L and answer with the value alone.

compound	pKi
O[C@@H](CN1CCC(Cc2ccc(F)cc2)CC1)c1ccc(Cl)cc1 [R-eliprodil]	6.70

Okay, next one:
Prompt: Given O[C@H](CN1CCC(Cc2ccc(F)cc2)CC1)c1ccc(Cl)cc1 [S-eliprodil] , state its recorded pKi.
Completion: 5.00
